System: Plasmodium falciparum
Assay: GSK_TCMDC: Inhibition of Plasmodium falciparum 3D7 in whole red blood cells, using parasite LDH activity as an index of growth. Test compounds present at 2uM
Format: functional
Inhibition reference
Write the number in % without appending the unit.

Recall the recorded Inhibition for Cc1cccc2nc(-c3cccc(-c4ccc(NC(=O)Nc5cccc(C#N)c5)cc4)c3)[nH]c12 with Plasmodium falciparum and state it. 100

====

Tested on: Plasmodium falciparum
Experiment: GSK_TCMDC: Inhibition of Plasmodium falciparum 3D7 in whole red blood cells, using parasite LDH activity as an index of growth. Test compounds present at 2uM
Format: functional
readout-kind: Inhibition (%)
State the answer as a number, implicitly in %.

>>> assay_value("O=C(/C=C/c1ccc([N+](=O)[O-])cc1)N1CCC(NS(=O)(=O)c2ccc(Br)cc2)CC1")
93

What value of measured Inhibition is listed for Cl.O=C(/C=C/c1ccc(F)cc1)NC1CCC(CCN2CCc3ccccc3CC2)CC1 (centres undefined) ? 91

Look up Inhibition for this compound: CCn1ccc2c(N3CCCC3=O)cc(C(=O)N[C@@H](Cc3ccccc3)[C@H](O)CNC3CCCCC3)cc21 99

What value of Inhibition has been recorded for this entry: Cl.N#Cc1ccc2c(c1)CCN(CCC1CCC(NC(=O)/C=C/c3c[nH]c4ccc(F)cc34)CC1)CC2 (centres undefined) 100

====

System: Plasmodium falciparum
Experiment: GSK_TCMDC: Inhibition of Plasmodium falciparum 3D7 in whole red blood cells, using parasite LDH activity as an index of growth. Test compounds present at 2uM
Assay type: functional
readout-kind: Inhibition (%)
Report the figure in % without appending any unit label.

Record excerpt, results attached:
>>> assay_value("CC1(C)CCCN(c2ncc(-c3cccc(CNCc4ccccc4O)c3)cn2)C1")
96
>>> assay_value("CNCCCn1c(N(C)C)nc2cc(-n3cnc4cc(-c5ccc(Cl)cc5)sc4c3=O)ccc21.O=C(O)C(F)(F)F")
86
>>> assay_value("CCN1CCN(CCCNc2c3ccc(Cl)cc3nc3ccc(O)cc23)CC1")
100
>>> assay_value("O=C(NCCc1cccc(Cl)c1Cl)c1ccc(N2CCN(c3ccncc3)CC2)nc1.O=C(O)C(F)(F)F")
100
>>> assay_value("CCOc1cc2ncnc(Nc3ccc(OCc4ccccc4OC)c(OC)c3)c2cc1OCC.Cl")
97
>>> assay_value("CN(C)CCNC(=O)c1cccc(-c2cnc3ccc(NCc4ccc(Cl)c(Cl)c4)nn23)c1")
100
>>> assay_value("COc1ccc2ccccc2c1C=NN=c1cc(C)[nH]c2c(C)cccc12")
100
>>> assay_value("Cn1c(NCc2cc(F)cc3c2OCOC3)nc2cc(Nc3ccnc(Nc4cccc(CS(C)(=O)=O)c4)n3)ccc21")
100
>>> assay_value("O=C(CSc1nc(-c2ccccc2Cl)ns1)Nc1ccc2c(c1)OCO2")
93
>>> assay_value("CCCCN1CCN(Cc2cccc(NC(=O)c3ccc(Cl)c(Cl)c3)c2)CC1.O=C(O)C(F)(F)F")
88

Fill in the blank: the reported Inhibition of CS(=O)(=O)NCCCNCc1ccc(-c2ccc(-c3nc4cc(F)ccc4[nH]3)s2)cc1.O=C(O)C(F)(F)F is ____. 95

What Inhibition value was documented for this compound, COc1ccc2nccc([C@@H](O)CN3CCC(NCc4cc5cc([N+](=O)[O-])ccc5[nH]4)CC3)c2c1.O=C(O)C(=O)O ? 99

Field request: Inhibition | item: C=CCc1cc(C2CCN(CCCCNC(=O)c3ccc(-c4ccc(C#N)cc4)cc3)CC2)c(OCC(N)=O)c2c1CCCC2 100

# get_value(readout='Inhibition', item= O=C(Nc1nc(-c2ccccn2)cc2ccccc12)c1cccc(Cl)c1 ) 96

Request the reported Inhibition associated with O=C(/C=C/c1ccc(Cl)c(Cl)c1)NCCCCCCN1CCN(C(=O)Nc2ccc(C(F)(F)F)cc2)CC1 100

Quick one: Inhibition of CS(=O)(=O)O.Nc1nc(NCC2CCC(CNS(=O)(=O)c3cccc4ccccc34)CC2)nc2ccccc12 (stereo not drawn) ? 97

Endpoint output: Inhibition of O=C(Nc1ccc(F)c(C(F)(F)F)c1)NC1CCN(CCCCCNC(=O)C2CC2c2ccc(Cl)c(Cl)c2)CC1 (stereo not drawn) . Value? 100

# input compound: O=C(Cn1c(CCc2cccc(F)c2F)cc(=O)c2cccnc21)N(CCn1ccnc1)Cc1ccc(-c2ccc(C(F)(F)F)cc2)cc1 ; wanted: its Inhibition 99

====

Recorded Inhibition for the following compounds
Test system: Plasmodium falciparum
Assay: GSK_TCMDC: Inhibition of Plasmodium falciparum Dd2 in whole red blood cells, using parasite LDH activity as an index of growth. Test compounds present at 2uM
Assay type: functional
Express your answer in %, writing the number without its unit.

Some compounds with known Inhibition results, for comparison:
>>> assay_value("CCNc1cc(C(=O)N[C@@H](Cc2ccccc2)[C@H](O)CNCCc2cccc3ccccc23)cc(N2CCCC2=O)c1.O=CO")
39
>>> assay_value("CC(C)c1cccc(C(NC(=O)[C@H]2Cc3ccccc3CN2C(=O)c2cccc(N3CCOCC3)c2)C2CCCC2)c1 (some centres undefined)")
96
>>> assay_value("COCCNCc1ccc(-c2ccc3c(Nc4ccc(F)cc4Cl)ccnc3c2)o1")
100
>>> assay_value("COc1ccc(-c2cccc(NC(=O)c3ccc(Cl)cc3)c2)cc1CN1CCCN(C)CC1.O=C(O)C(F)(F)F")
95
>>> assay_value("CCCC(=O)Nc1ccc(Cl)c(NC(=O)COc2cc(C)ccc2C(C)C)c1")
67

Which measured Inhibition value corresponds to CCCc1cc2c3c(N)nc(N)nc3ccc2n1CC ? 6

Consider the compound shown here: Br.CCCCCCn1c2c(c(=N)c3c1CCC3)CCCC2 What is its recorded Inhibition? 76

Reported Inhibition for NCCNC(=O)c1ccc(-c2cnc3[nH]cc(-c4ccc(C(N)=O)cc4)c3c2)cc1 : what is it? 98

Report Inhibition for O=C(Cn1c(SCc2cccc(F)c2F)cc(=O)c2ccccc21)N(CCn1ccnc1)Cc1ccc(-c2ccc(C(F)(F)F)cc2)cc1 please. 94

====

Tested on: Plasmodium falciparum
Assay: GSK_TCMDC: Inhibition of Plasmodium falciparum Dd2 in whole red blood cells, using parasite LDH activity as an index of growth. Test compounds present at 2uM
Type: functional
Inhibition overview
Number first, unit second.

Reference set (6 entries):
>>> assay_value("O=[N+]([O-])c1ccc(C=NNc2nc3ccccc3[nH]2)cc1")
"98%"
>>> assay_value("O=c1cc(NCCCNCc2cccc(OC(F)(F)C(F)F)c2)[nH]c2ccccc12")
"7%"
>>> assay_value("Cc1cccc(C)c1/N=C1\\NC(=S)N(c2cccc(Cl)c2)C12CCC(C(C)(C)C)CC2 (centres undefined)")
"53%"
>>> assay_value("O=C(Nc1cccc(-c2ccc(NCCCN3CCCC3)nc2)c1)c1ccccc1")
"21%"
>>> assay_value("COc1cc(Cl)c(C)cc1N(Cc1ccccc1-c1ccccc1)S(=O)(=O)c1ccc(C(F)(F)F)cc1")
"62%"
>>> assay_value("c1ccc(OCCOc2ccc(Nc3ccnc4cc5ccccc5cc34)cc2)cc1")
"96%"

May I ask what Inhibition has been recorded for O=C(Nc1ccc(S(=O)(=O)N2CCCCC2)cc1)c1cc(-c2cc(Cl)ccc2O)n[nH]1 ? 87%

Entry O=C(O)C(F)(F)F.O=S(=O)(NCCN1CCCC1)c1cccc(-c2ccc(CNCc3ccc(F)cc3)cc2)c1 has what Inhibition? 41%

Entry NCC1CCCN1Cc1ccc(-c2ccc(-c3nc4ccccc4[nH]3)s2)cc1.O=C(O)C(F)(F)F (centres undefined) : reported Inhibition = ? 97%

====

The following molecules are listed with their measured Inhibition values.
Test system: HepG2
Experiment: GSK_TCMDC: Percent inhibition of human HepG2 cell line. Test compounds present at 10uM.
Type: functional
Please give a number only; it is taken to be in %.

>>> assay_value("CCOc1cc(C)ccc1C1CCN(CCCCNC(=O)c2ccc(-c3ccc(Cl)cn3)cc2)CC1.Cl")
19
>>> assay_value("CCOC(=O)/C(=N\\OC(C(=O)OC(C)(C)C)c1ccccc1)c1csc(NC(c2ccccc2)(c2ccccc2)c2ccccc2)n1 (centres undefined)")
14
>>> assay_value("Cc1ccccc1C1CCN(C2CCC(NC(=O)c3ccc4c(c3)-c3nocc3C(C)O4)CC2)CC1 (centres undefined)")
68

Let us move to another entry and its Inhibition.
Which measured Inhibition value corresponds to CC(C)CNCc1ccc(-c2ccc(CN(C(=O)NCCc3ccccc3)C3CCN(Cc4ccccc4)CC3)cc2)cc1.O=C(O)C(F)(F)F ? 37

====

Test system: Plasmodium falciparum
Assay: GSK_TCMDC: Inhibition of Plasmodium falciparum 3D7 in whole red blood cells, using parasite LDH activity as an index of growth. Test compounds present at 2uM
Type: functional
readout-kind: Inhibition
Remember to follow the number with its unit.

Example compounds with recorded Inhibition:
>>> assay_value("c1ccc(-c2nc(NC3CCCCC3)cc(C3CC3)n2)nc1")
"97%"
>>> assay_value("O=C(NCCN1CCCC1)c1ccc(-c2ccc(-c3nc4ccccc4[nH]3)s2)cc1")
"92%"
>>> assay_value("O=C(Nc1ccccc1)N(Cc1cccc(-c2ccc(CNC3CCCC3)cc2)c1)C1CCN(Cc2ccccc2)CC1.O=C(O)C(F)(F)F")
"100%"
>>> assay_value("Cc1c(Cc2ccccc2Cl)cnc2nc(N)nc(N)c12.Cl")
"91%"
>>> assay_value("CCN(CC)CCN(Cc1ccc(-c2ccc(C(F)(F)F)cc2)nc1)C(=O)Cn1c(SCc2ccc(F)cc2)nc(=O)c2sccc21.O=C(O)C(O)C(O)C(=O)O")
"96%"
>>> assay_value("Cc1noc(C)c1-c1ccc2c(Nc3ccccc3C(C)(C)C)c(C(=O)NCc3ccc(C(F)(F)F)cc3)cnc2c1.Cl")
"99%"

Record request: Inhibition value, item COc1cccc(-c2cc3nc4c(c(NCCCn5ccnc5)n3n2)CCCC4)c1 100%

# input compound: COc1cc2nccc(Nc3cc(C)cc(O)c3)c2cc1OC.Cl ; wanted: its Inhibition 97%

Could you share which Inhibition value was measured for CN1CCCC(CN2CCN(Cc3ccc(-c4cccc(-c5nc6cc(F)ccc6[nH]5)c4)cc3)CC2)C1.O=C(O)C(F)(F)F (stereo not drawn) ? 100%
